Quick list: Ki per entry.
- ASSAY_SYSTEM: Sodium-dependent dopamine transporter (Homo sapiens, UniProt Q01959)
- Sequence (Q01959 whole entry): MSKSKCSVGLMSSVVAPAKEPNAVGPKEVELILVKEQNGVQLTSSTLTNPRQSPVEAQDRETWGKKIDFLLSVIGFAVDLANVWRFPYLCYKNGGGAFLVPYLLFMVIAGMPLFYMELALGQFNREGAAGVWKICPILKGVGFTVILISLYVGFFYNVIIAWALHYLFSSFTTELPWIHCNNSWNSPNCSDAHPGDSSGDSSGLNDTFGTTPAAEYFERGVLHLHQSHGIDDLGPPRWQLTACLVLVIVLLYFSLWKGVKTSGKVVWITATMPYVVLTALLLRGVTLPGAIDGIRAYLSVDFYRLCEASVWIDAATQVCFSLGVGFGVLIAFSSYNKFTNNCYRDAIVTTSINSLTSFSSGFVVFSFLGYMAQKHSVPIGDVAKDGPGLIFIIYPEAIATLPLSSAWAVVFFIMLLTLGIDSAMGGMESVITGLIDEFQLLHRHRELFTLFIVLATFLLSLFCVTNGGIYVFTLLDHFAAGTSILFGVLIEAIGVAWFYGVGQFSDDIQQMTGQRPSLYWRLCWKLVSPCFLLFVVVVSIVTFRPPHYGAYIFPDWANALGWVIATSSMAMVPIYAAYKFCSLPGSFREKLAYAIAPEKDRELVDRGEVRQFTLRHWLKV
- EXPERIMENTAL_DETAILS: Displacement of [125I]methyl 3-(4-iodophenyl)-8-methyl-8-aza-bicyclo[3.2.1]octane-2-carboxylate from human recombinant DAT expressed in african green monkey COS1 cells by liquid scintillation counting
Could you give me the number in nM? Just the number is fine.

As a guide, the following entries are already answered.
{"COMPOUND": "CN1C2CCC1[C@@H](C(=O)NCCCCCCCCNC(=O)[C@H]1C3CCC(C[C@@H]1c1ccc(-c4ccsc4)cc1)N3C)[C@@H](c1ccc(-c3ccsc3)cc1)C2", "Ki (nM)": 690}
{"COMPOUND": "COC(=O)[C@@H]1C2CCC(C[C@@H]1c1ccc(-c3ccsc3)cc1)N2C (some centres undefined)", "Ki (nM)": 2.5}
{"COMPOUND": "CN1C2CCC1[C@@H](C(=O)Nc1ccc(NC(=O)[C@H]3C4CCC(C[C@@H]3c3ccc(Cl)cc3)N4C)cc1)[C@@H](c1ccc(Cl)cc1)C2", "Ki (nM)": 690}

Next, consider the following compound.
[ask] Which Ki is reported with Sodium-dependent dopamine transporter (Homo sapiens, UniProt Q01959) for this entry: CN1C2CCC1[C@@H](C(=O)OCc1cn(CCOC(=O)[C@H]3C4CCC(C[C@@H]3c3ccc(Cl)cc3)N4C)nn1)[C@@H](c1ccc(Cl)cc1)C2 (some centres undefined) ?
[reply] 16
